These measurements were taken from patent US11470846B2.

Tested on: Alopecurus myosuroides (ALOMY)
test.description: Post-emergence herbicidal activity
Format: in vivo
experimental.setup: post-emergence application, 1000 g/Ha, evaluated after 13 days, scale 0-5
measurement.label: Control of weed species, ALOMY (damage score)

- smiles.data: "CCOC(=O)N(C)c1sc(-c2cccnc2)nc1C"
  endpoint.value: 1
- smiles.data: "Cc1nc(-c2cncc(C=O)c2)sc1N(C)C(=O)OC(C)(C)C"
  endpoint.value: 0
- smiles.data: "Cc1nc(-c2cncc(C(F)(F)F)c2)sc1N(C)C(=O)OC(C)(C)C"
  endpoint.value: 0
- smiles.data: "Cc1nc(-c2cncc(S(C)(=O)=O)c2)sc1N(C)C(=O)OC(C)(C)C"
  endpoint.value: 1
- smiles.data: "Cc1nc(-c2cccnc2)sc1N(C)C(=S)SC(C)(C)C"
  endpoint.value: 0
- smiles.data: "CN(C(=O)OC(C)(C)C)c1sc(-c2cncnc2)nc1C(F)(F)F"
  endpoint.value: 0
- smiles.data: "CN(C(=O)OC(C)(C)C)c1sc(-c2cncc(F)c2)nc1C(F)(F)F"
  endpoint.value: 0
- smiles.data: "CN(C(=O)OC(C)(C)C)c1sc(-c2cncc(F)c2)nc1Br"
  endpoint.value: 0
- smiles.data: "Cc1nc(-c2cncc(OCc3ccccc3)c2)sc1N(C)C(=O)OC(C)(C)C"
  endpoint.value: 0
- smiles.data: "Cc1nc(-c2cncc(F)c2)sc1NC(=O)OC(C)(C)C"
  endpoint.value: 0
- smiles.data: "Cc1nc(-c2cncc(C(N)=O)c2)sc1N(C)C(=O)OC(C)(C)C"
  endpoint.value: 1
- smiles.data: "COC(=O)N(C)c1sc(-c2cccnc2)nc1C"
  endpoint.value: 1
- smiles.data: "COc1cncc(-c2nc(C(F)(F)F)c(N(C)C(=O)OC(C)(C)C)s2)c1"
  endpoint.value: 1
- smiles.data: "CCN(C(=O)OC(C)(C)C)c1sc(-c2cccnc2)nc1C"
  endpoint.value: 1
- smiles.data: "Cc1nc(-c2cccnc2)sc1N(C)C(=O)NC(C)(C)C"
  endpoint.value: 2
- smiles.data: "Cc1nc(-c2cccnc2)sc1N(C)C(=O)NOC(C)(C)C"
  endpoint.value: 1
- smiles.data: "CSc1cncc(-c2nc(C)c(N(C)C(=O)OC(C)(C)C)s2)c1"
  endpoint.value: 0
- smiles.data: "Cc1nc(-c2cccnc2)sc1N(C)C(=O)Oc1ccc([N+](=O)[O-])cc1"
  endpoint.value: 0
- smiles.data: "CN(C(=O)OC(C)(C)C)c1sc(-c2cccnc2)nc1Cl"
  endpoint.value: 1
